Cited source for all entries: the RNAGym collection of RNA variant scans (doi:10.1126/science.aae0568)

Hi there, I'd appreciate the recorded yeast fitness for every entry that follows.
B1: tRNA (parent)
chain: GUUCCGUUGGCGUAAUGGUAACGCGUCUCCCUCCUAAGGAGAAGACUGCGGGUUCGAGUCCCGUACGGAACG

variants of: B1; assay: yeast fitness relative to wild type (ratio to wild type); higher = fitter; tRNA-Arg(CCU), competitive growth, 37 C, YPD
Variants at the floor of the assay were thinned out.
One number for each entry.

Example entries begin here.
- G38A A43G A70C: 0.584
- C11A C27G U35A A43U U54C: 0.556
- C5G A37G C46G: 0.598
- C5U A37C C61U: 0.627
- U3C G25A A37U: 0.574

Need yeast fitness for each of these variants.
1. U59C A70C
2. C24G G50A
3. C46A U47A
4. C49A U64G A69C
5. G9C A15U U28G C55G A69U
6. C29A C31G C49A C55G
7. A20U C34U
8. U3C C31U U54A

1: 0.897; 2: 0.616; 3: 1.04; 4: 0.592; 5: 0.599; 6: 0.549; 7: 0.652; 8: 0.583

// for each variant below, give its yeast fitness
1. U19A U47A C61A
2. G6C G51A
3. G12C C22A
4. C5U C22G C27U
5. U8A G52A G56C

[0.549, 0.791, 1, 0.612, 0.841]

Please state yeast fitness for every variant in the list that follows.
1. C4G G58C C62U
2. C4A C5G U19A C46U A69U
3. G25C G48A G68A
4. G56U G58C
5. C49U A70G

0.651
0.574
0.564
0.75
1.07
